System: annual morning glory
Assay: Postemergent control of plant species
Type: in vivo, Ipomoea spp.
Details: Ipomoea, post-emergence, 336 h, read-out: percent postemergent control
PROPERTY_LABEL: pest or weed control at 500 ppm (%)
One number for each entry, in %.

Would you please look over these solved cases?
{"columns": ["SMILES", "ASSAY_SYSTEM", "pest or weed control at 500 ppm [%]"],
 "data": [
  ["Cc1nc2nc(S(=O)(=O)Nc3ccccc3[N+](=O)[O-])nn2c2c1CCC2", "annual morning glory", 70],
  ["COC(=O)c1c(NS(=O)(=O)c2nc3nc(C)ccn3n2)c(C)nn1C", "annual morning glory", 0],
  ["CC(=O)N(c1c(Cl)cccc1Cl)S(=O)(=O)c1nc2nc(C)cc(C)n2n1", "annual morning glory", 100],
  ["COC(=O)c1ccccc1NS(=O)(=O)c1nc2nc(C)cc(C)n2n1", "annual morning glory", 0],
  ["Cc1cc(C)n2nc(S(=O)(=O)Nc3ccccc3[N+](=O)[O-])nc2n1", "annual morning glory", 100]
]}

For the 2 molecules below, give their pest or weed control at 500 ppm values.
1. Cc1cc(C)n2nc(S(=O)(=O)N(Cc3ccccc3)c3c(Cl)cccc3Cl)nc2n1
2. Cc1nc2nc(S(=O)(=O)Nc3ccccc3C(F)(F)F)nn2c2c1CCC2

[60, 80]

Batch of 8 molecules: report pest or weed control at 500 ppm for each.
1. COC(=O)c1nn(C)c(C)c1NS(=O)(=O)c1nc2nc(C)cc(C)n2n1
2. Cc1cc(C)n2nc(S(=O)(=O)Nc3c(F)c(F)cc(F)c3F)nc2n1
3. Cc1ccn2nc(S(=O)(=O)Nc3c(F)c(F)cc(F)c3F)nc2n1
4. Cc1cc(C)n2nc(S(=O)(=O)Nc3c(C)cccc3C)nc2n1
5. Cc1cc(C)n2nc(S(=O)(=O)Nc3ccc(F)cc3Cl)nc2n1
6. COC(=O)c1ccc(Cl)c(NS(=O)(=O)c2nc3nc(C)cc(C)n3n2)c1Cl
7. Cc1cc(C)n2nc(S(=O)(=O)Nc3ccccc3)nc2n1
8. CCOc1cnc2nc(S(=O)(=O)Nc3ccccc3C(F)(F)F)nn2c1

[25, 30, 0, 0, 60, 85, 0, 0]

Field: pest or weed control at 500 ppm. Fill in for each record below.
1. Cc1ccn2nc(S(=O)(=O)Nc3c(C)nn(C)c3C(F)(F)F)nc2n1
2. Cc1cc(C)n2nc(S(=O)(=O)N(C)c3c(Cl)cccc3Cl)nc2n1

50
40

Would you be so kind as to report pest or weed control at 500 ppm for each listed record?
1. COc1cccc(C=NO)c1NS(=O)(=O)c1nc2nc(C)cc(C)n2n1
2. CCc1cccc(CC)c1NS(=O)(=O)c1nc2nc(C)cc(C)n2n1
3. Cc1cc(C)n2nc(S(=O)(=O)Nc3ccccc3F)nc2n1
4. Cc1cc(C)n2nc(S(=O)(=O)Nc3ccccc3I)nc2n1
5. Cc1cc(C)n2nc(S(=O)(=O)Nc3ccc(Cl)cc3C(F)(F)F)nc2n1
6. Cc1ccn2nc(S(=O)(=O)Nc3c(Cl)ccc4ccccc34)nc2n1

1: 0; 2: 60; 3: 70; 4: 80; 5: 75; 6: 90

The following molecules each have a reported value; give each one's pest or weed control at 500 ppm.
1. CSc1cccc(Cl)c1NS(=O)(=O)c1nc2nc(C)cc(C)n2n1
2. Cc1ccn2nc(S(=O)(=O)N(C(=O)N(C)C)c3c(Cl)cccc3Cl)nc2n1

1: 80; 2: 80

Provide reported pest or weed control at 500 ppm for each item, in the same order as listed.
1. COc1ccc(Cl)c(NS(=O)(=O)c2nc3nc(C)ccn3n2)c1Cl
2. Cc1cc(C)n2nc(S(=O)(=O)Nc3c(C)nn(C)c3C(F)(F)F)nc2n1

1. 70
2. 0

Dear reader, for each entry below, please note its pest or weed control at 500 ppm.
1. O=S(=O)(Nc1ccccc1C(F)(F)F)c1nc2ncccn2n1
2. CCOC(=O)CN(c1c(C)cccc1C(=O)OC)S(=O)(=O)c1nc2nc(C)cc(C)n2n1

1. 40
2. 85

Please look at the items below and tell me pest or weed control at 500 ppm for each one, in order.
1. Cc1cc(C)n2nc(S(=O)(=O)Nc3cccc(Cl)c3)nc2n1
2. Cc1ccn2nc(S(=O)(=O)N(c3c(F)cccc3F)S(=O)(=O)c3ccccc3)nc2n1
3. COC(=O)c1cccc(F)c1NS(=O)(=O)c1nc2nc(C)cc(C)n2n1
4. Cc1cc(C)n2nc(S(=O)(=O)Nc3c(Cl)cccc3CO)nc2n1
5. COC(=O)c1cccc(C)c1N(Cc1ccccc1)S(=O)(=O)c1nc2nc(C)cc(C)n2n1
6. Cc1ccc(NS(=O)(=O)c2nc3nc(C)cc(C)n3n2)c(Cl)c1

0
50
90
0
90
60
